As shown below, each of these binders has a reported pKd value.
tgt: DLG1_3, Q12959
Sequence (Q12959 457-571): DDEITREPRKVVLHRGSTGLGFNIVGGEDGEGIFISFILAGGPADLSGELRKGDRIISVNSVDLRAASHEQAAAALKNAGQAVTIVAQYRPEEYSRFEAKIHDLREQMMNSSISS
assay_overview: holdup assay
Set-up: key: below the threshold = too weak to quantify, mostly under pKd 3.1 to 4
condition_notes: plain residues with an end cap or a label only (N-terminal biotin on a linker: ado-ado)
Field format: numeric only.

• PPYRHRNTVV [ERBB4, Q15303] = 4.01

Form field pKd, entry RRLPGKETMA [GRIK2, Q13002] : 3.69

Form field pKd, entry LPHPHSTTRV [NLGN2, Q8NFZ4] : 4.13

Form field pKd, entry SAKVRTVTSV [RASL11B, Q9BPW5] : 4.54

Form field pKd, entry QSARLWETSI [ADAM22, Q9P0K1] : 4.66

Form field pKd, entry KSGKQTMLVV [TRIM29, Q14134] : 3.69

Form field pKd, entry QHKTQLQTLI [BPIFA2, Q96DR5] : 3.68

Form field pKd, entry SSALYGESDL [ACTN2, P35609] : 3.75

Form field pKd, entry RRISSLESEV [GRIN2C, Q14957] : 4.09
